- Tested on: Oocyte
- method_description: Inhibition of Influenza A Virus M2 proton channel expressed in Xenopus laevis oocytes at 100 uM after 2 mins by two-electrode […] assay
- Format: cell-based
Classes by inhibition: 1 = under 70%, 2 = from 70% up to 90%, 3 = 90% and over

Solved entries (count: 10):
INSERT INTO results (molecule, discrete_label) VALUES
  ('NN1CCC2(CCCCC2)CC1', 3),
  ('CC1(O)C2CC3CC(C2)CC1C3 (stereo not drawn)', 2),
  ('CC1(C)C(N)C1(C)C', 1),
  ('NC(=O)C12CC3CC(CC(C3)C1)C2', 2),
  ('NNC1CCC2(CCCCC2)CC1', 2),
  ('NC12CC3CCC(CC(C3)C1)C2', 2),
  ('CC12CC3(O)CC1(C)CC3(O)C2', 1),
  ('OC1C2C3CC4C1C1C2CC3C41 (stereo not drawn)', 1),
  ('N=C(N)C12CC3CC(CC(C3)C1)C2', 3),
  ('O=S(=O)(O)C12CC3CC(CC(C3)C1)C2', 1);

QUERY: Tag the class for `C1NC2CC3CC1CC(C3)C2`
RESULT: 2

QUERY: Bin this entry: `NOC12CC3CC(CC(C3)C1)C2`
RESULT: 2

QUERY: # bin label for `NC12CC3CC(C1)CC(O)(C3)C2`
RESULT: 1

QUERY: Hey, which category is `C1CC2CCC1CNC2` in, do you know?
RESULT: 2

QUERY: Please let me know in which category the item OC1CC2C3CCC(C3)C2C1O (stereo not drawn) belongs.
RESULT: 1

QUERY: Exercise: read the entry `CC(C)(C)c1ccc(CN)cc1` and state which class it falls under.
RESULT: 1

* * *

- Test system: Oocyte
- method_description: Inhibition of Influenza A Virus M2 proton channel expressed in Xenopus laevis oocytes at 100 uM after 2 mins by two-electrode […] assay
- Assay type: cell-based
Reported inhibition values for a set of molecules
Quick reminder: number only, in %, skip the unit.

INSERT INTO assay_data (molecule, tested_system, units, reported_value) VALUES
  ('OC1C2C3CC4C2C(O)C2C1C3C42 (configuration not stated)', 'Oocyte', '%', 76),
  ('OC12CC3CC(CC(C3)C1)C2', 'Oocyte', '%', 85),
  ('NC1C2C3CC4C1C1C2CC3C41 (configuration not stated)', 'Oocyte', '%', 96),
  ('NC1C2C3CC4C2C(O)C2C1C3C42 (configuration not stated)', 'Oocyte', '%', 86),
  ('NC1CC2CC1C1CCCC21 (configuration not stated)', 'Oocyte', '%', 94),
  ('C1CC2CC1C1CNC21 (configuration not stated)', 'Oocyte', '%', 45);

QUERY: Give the reported value of inhibition for this record: `O=C1CC2(CCCCC2)CC(=O)N1`
RESULT: 35

* * *

- Tested on: Oocyte
- method_description: Inhibition of Influenza A Virus M2 proton channel expressed in Xenopus laevis oocytes at 100 uM after 2 mins by two-electrode […] assay
- Format: cell-based
Label label 1 for high-side inhibition (at or above 90%) and label 0 for low-side inhibition (below it).

INSERT INTO assay_data (compound, tested_system, discrete_label) VALUES
  ('N=C(N)NC(=N)NC12CC3CC(CC(C3)C1)C2', 'Oocyte', 'label 0'),
  ('O=C1C2CC3CC(C2)CC1C3', 'Oocyte', 'label 0'),
  ('N=C(NO)C12CC3CC(CC(C3)C1)C2', 'Oocyte', 'label 0'),
  ('C1CCC2(CC1)CCNCC2', 'Oocyte', 'label 1'),
  ('NC1Cc2ccccc2C1', 'Oocyte', 'label 0'),
  ('C1CC2CC1C1CNCC21 (configuration not stated)', 'Oocyte', 'label 0');

QUERY: Does the compound `CC(C)(C)CC(C)(C)N` have recorded inhibition that is 90% or more?
RESULT: label 0

QUERY: Say whether `NN1C(=O)CC2(CCCCC2)CC1=O` shows inhibition of 90% or more.
RESULT: label 0

QUERY: Does the compound `NC12CC3CC(C1)CC(CO)(C3)O2` have recorded inhibition that is 90% or more?
RESULT: label 0

QUERY: Given the entry `N=C(N)NC12CC3CC(CC(C3)C1)C2` , answer whether its inhibition meets or surpasses 90%.
RESULT: label 1

QUERY: For this compound, is measured inhibition 90% or higher? OC1CCC(C2CC3CCC2C3)CC1O (configuration not stated)
RESULT: label 0

* * *

- Tested on: Oocyte
- method_description: Inhibition of Influenza A Virus M2 proton channel expressed in Xenopus laevis oocytes at 100 uM after 2 mins by two-electrode […] assay
- Format: cell-based
Below, each of the compounds is paired with its reported inhibition value.
Numbers only; they are read as %.

These solved cases illustrate the format of a correct answer.
INSERT INTO assay_data (compound, tested_system, reported_value) VALUES
  ('NC1C2CC3CC(C2)CC1C3 (stereo unspecified)', 'Oocyte', 92),
  ('N=C(N)NCC12CC3CCC(CC(C3)C1)C2', 'Oocyte', 90),
  ('NC(CO)C12CC3CC(CC(C3)C1)C2 (stereo unspecified)', 'Oocyte', 90),
  ('NC12CCC3CC(CC(C3)C1)C2', 'Oocyte', 92);

QUERY: Annotate the compound `NC12CC3CC(CC(C3)C1)C2` with its measured inhibition.
RESULT: 91

QUERY: Using known records, supply inhibition for `NC1CCC2(CCCCC2)CC1`
RESULT: 89
